From: patent US20160185837A1

# tested_on: T1, human GIP receptor (human) (UniProt P48546)
# T1 sequence (looked up): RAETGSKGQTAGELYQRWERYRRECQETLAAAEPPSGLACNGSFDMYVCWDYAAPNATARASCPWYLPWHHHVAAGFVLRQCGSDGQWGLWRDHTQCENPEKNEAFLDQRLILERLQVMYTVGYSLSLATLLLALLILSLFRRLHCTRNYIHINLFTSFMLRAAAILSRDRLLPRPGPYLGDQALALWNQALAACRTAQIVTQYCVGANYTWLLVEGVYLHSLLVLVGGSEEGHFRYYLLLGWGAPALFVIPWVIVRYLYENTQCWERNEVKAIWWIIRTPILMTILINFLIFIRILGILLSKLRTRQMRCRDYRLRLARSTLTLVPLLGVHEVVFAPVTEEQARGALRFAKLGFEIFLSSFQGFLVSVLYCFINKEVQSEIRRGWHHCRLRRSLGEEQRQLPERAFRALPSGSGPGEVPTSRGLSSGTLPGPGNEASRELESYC
# assay_summary: cell-based or functional assay
Each record is given Condition met if its reported cAMP EC50 is strictly below 10 pM. Records at or above 10 pM are given Condition not met.

>  <binder>
IP394 (Fc fusion) YSEGMHTSDLSKLLERQAIDEFIAWLLKGGAAAGGSGSTASSGSGSATGGGGAATHTCPPC

>  <assigned_class>
Condition met

$$$$
>  <binder>
IP342 (Fc fusion) YSEGTFTSDYSAAAEAAAAAAFAAWLAAAAGGGGGSGGGGSGGGGSGGGGSACPPC

>  <assigned_class>
Condition not met

$$$$
>  <binder>
IP330 (Fc fusion) YSEGTFTSDYSKLLERQAIDEFIALLLKGGGGGGGSGGGGSGGGGSGGGGSGGGGSGGGGSA

>  <assigned_class>
Condition met

$$$$
>  <binder>
IP336 (Fc fusion) YSEGTFISDYSIAMDKIHQQDFVNWLLAQKGGGGGSGGGGSGGGGSGGGGSGGGGSGGGGSA

>  <assigned_class>
Condition met

$$$$
>  <binder>
IP315 (Fc fusion) YSEGTFISDYSSYLERQAIDEFIAWLLKGGAAAGGSGSTASSGSGSATGGGGAATHTCPPC

>  <assigned_class>
Condition not met

$$$$
>  <binder>
IP207 (Fc fusion) YAEGTFISDYSIAMDKIHQQDFVNWLLAQKGKKNDWKHNITQAAAGGSGSTASSGSGSATGGGGAATHTCPPCPAPELL

>  <assigned_class>
Condition met

$$$$
>  <binder>
IP302 (Fc fusion) YSEGTFISDYSIALAAAAQQDFVNWLLAGGGGGGGSGGGGSGGGGSGGGGSATHTCPPC

>  <assigned_class>
Condition not met

$$$$
>  <binder>
IP335 (Fc fusion) YSEGTFISDYSIAMDKIHQQDFVNWLLAQKGGGGGSGGGGSGGGGSGGGGSA

>  <assigned_class>
Condition met

$$$$
>  <binder>
IP224 (Fc fusion) YSEGTFTSDVSSYMERQAIDEFIAWLLGGGAAAGGSGSTASSGSGSATGGGGAATHTCPPCPAPEF

>  <assigned_class>
Condition not met

$$$$
>  <binder>
IP331 (Fc fusion) YSEGTFTSDYSKLLERQAIDEFIADLLKGGGGGGGSGGGGSGGGGSGGGGSGGGGSGGGGSA

>  <assigned_class>
Condition not met

$$$$
>  <binder>
IP308 (Fc fusion) YSEGTFISDYSIALAAAAAKDFVNWLLAGGGGGGGSGGGGSGGGGSGGGGSATHTCPPC

>  <assigned_class>
Condition not met

$$$$
